Data credit: patent US20230287088A1

- target-or-system: Human-Fc-tagged SARS-CoV2 S1 recombinant protein (Sino Biologicals) (SARS-CoV-2, UniProt P0DTC2 16-685)

- binder: "P043.A.00018.C02 (protein sample ID 450) (antibody, V domains shown) VH: QSVEESGGRLVTPGTPLTLTCTVSGFSLSSYAMSWVRQAPGKGLEWIGIINSGRSTYYASWAKGRFTISKTSTTVDLKITSPTTEDTATYFCARDATSIGYYRYYGMDPWGPGTLVTVSS VL: AIQMTQSPSSLAASVGDTVTITCKASEDIGYGLNWYQQKLGIAPKLLIYGANTLESGVPSRFSGSGSETDYTLTISSVQAEDAGIYYCQQGYSTPLTFGAGTKVEIK"
  IC50 / ng/mL: 1
- binder: "P043.A.00092.C12 (antibody, V domains shown, also called 472; protein sample ID 472) VH: QEELKETGGGLVQPGGSLTLSCKASGFDFSSYYMSWVRQAPGKGLEWIGVIYASKGSTDYASWVNGRFTISSDNAQNTVDLQMNSLTAADTATYYCARSKRFYTYGYAGYAYAHYYYGMDLWGPGTLVTVSS VL: AIQMTQSPSSLAASVGDTVTITCKASEDIGYGLNWYQQKLGIAPKLLIYGADTLESGVPSRFSGSGSETDYTLTISSVQAEDAGIYYCQQGYSTPLTFGAGTKVEIK"
  IC50 / ng/mL: 6.5
- binder: "P043.A.00095.D06 (protein sample ID 470) (antibody, V domains shown, also called S1 targeting antibody 470; anti-S1-antibody 470) VH: QEQLEESGGDLVKPEGSLTLTCTASGFSFSSNYWICWVRQAPGKGLEWIGCIYIGSGDTYYASWAKGRFTISKTSSTTVTLQMTSLTAADTATYFCARSYTPGSYYNMNLWGPGTLVTVSS VL: DVVMTQTPSSVSAAVGGTVTINCQASQQISNELSWYQQKSGQPPKLLIYDASDLASGVPSRFKGSGSGTEFTLTISDLESADAATYYCQSTGGASSDGNAFGGGTEVVVK"
  IC50 / ng/mL: 12.7
- binder: "P043.A.00023.E05 (antibody, V domains shown, also called 443; protein sample ID 443) VH: QSLEESGGRLVTPGTPLTLTCTVSGFSLSSYAMSWVRQAPGKGLEWIGIISSSGSTYYASWAKGRFTISKTSTTVDLKITSPTTEDTATYFCARDASSRGYYYYYGMDPWGPGTLVTVSS VL: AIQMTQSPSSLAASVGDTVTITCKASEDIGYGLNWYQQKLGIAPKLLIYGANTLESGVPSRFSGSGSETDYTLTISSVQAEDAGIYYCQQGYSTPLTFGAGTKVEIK"
  IC50 / ng/mL: 8.2
- binder: "P043.A.00023.A08 (protein sample ID 446) (antibody, V domains shown) VH: QSVEESGGRLVTPGTPLTLTCTVSGFSLSKYAMSWVRQAPGKGLEWIGIISSGGSTYYASWAKGRFTISKTSSTTVDLKITSPTTEDTATYFCARAGYPGYSPHYFNIWGPGTLVTVSL VL: AIQMTQSPSSLAASVGDTVTITCKASEDIGYELNWYQQKLGIAPKLLIYGANTLESGVPSRFTGSGSETDYTLTISSVQAEDAGIYYCQQGYSTPPTFGAGTKVEIK"
  IC50 / ng/mL: 4.7
- binder: "P043.A.00047.H08 (protein sample ID 447) (antibody, V domains shown, also called antibody with the Protein sample ID 447) VH: QSLEESGGDLVKPGASLTLTCTASGFSFSSDGMCWVRQAPGKGLEWIACIAAGSSGSTYYATWAQGRFTISKSSSTTVTLQMTSLTAADTATYFCAGEDYTGNNYYALWGPGTLVTVSS VL: AIDMTQTPSPVSAVVGDTVTINCQASENIYSFLAWYQQKPGQPPKLLIYFASKLASGVPSRFKGSGSGTQFTLTISDVHSDDAAIYYCQQTGTYSDADNTFGGGTEVVVK"
  IC50 / ng/mL: 16.3
- binder: "P043.A.00117.C08 (protein sample ID 469) (antibody, V domains shown) VH: QSLEESGGGLVKPEGSLTLTCKASGFDLNTYYYMCWVRQAPGKGLEWIACIGTSDSGHTAYASWARGRFTISKTSSTTVTLQMTGLTAADTATYFCARGGRSVGDGVDLWGPGTLVTVSS VL: DIVMTQTPASVEAAVGGTVTIKCQASQSISSWLAWYQQKPGQPPKLLIYDAFDLASGVPSRFKGSGSGTEFTLTISDLESADAATYYCQSYLYGESGSHGFGFGGGTEVVVR"
  IC50 / ng/mL: 14.2
- binder: "P043.A.00020.D06 (protein sample ID 444) (antibody, V domains shown) VH: QSVEESGGRLVTPGTPLTLTCTVSGFSLSSYAMNWVRQAPGKGLEWIGIISSSGSTYYASWAKGRFTISKTSTTVDLKITSPTTEDTATYFCARVGAGYAGYGYDNYYGMDPWGPGTLVTVSS VL: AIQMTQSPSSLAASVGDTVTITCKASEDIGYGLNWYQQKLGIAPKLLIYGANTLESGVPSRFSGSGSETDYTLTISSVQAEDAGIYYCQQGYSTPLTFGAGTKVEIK"
  IC50 / ng/mL: 7.2
- binder: "P043.A.00017.E07 (protein sample ID 449) (antibody, V domains shown) VH: QSVEESGGRLVTPGTPLTLTCTVSGFSLSSYAMSWVRQAPGKGLEWIGIISSSGSTYYASWAKGRFTISKTSTTVDLKITSPTTEDTATYFCARAMYPGYSTGVYNIWGPGTLVTVSL VL: AIQMTQSPSSLAASVGDTVTITCKASEDIGYELNWYQQKLGIAPKLLIYGANTLESGVPSRFSGSGSETDYTLTISSVQAEDAGIYYCQQGYNTPNTFGAGTKVEIK"
  IC50 / ng/mL: 3.6
- binder: "P043.A.00036.C07 (antibody, V domains shown, also called 448; protein sample ID 448) VH: QSLEESGGDLVKPGASLTLTCTASGFSFSSSYWICWVRQAPGKGLEWIGCIYTGSGSTWYASWAKGRFTISKTSSTTVTLQMTSLTAADTATYFCARGYGSYMYDFWGPGTLVTVSS VL: DVVMTQTPASVEAAVGGTVTIKCQASQSISTALAWYQQKPGQPPKLLIYSASTLESGVPSRFKGSGSGTEFTLAISDLESADAATYYCQGADGSSSSFGGGTEVVVK"
  IC50 / ng/mL: 14.1
